- EXPERIMENTAL_TARGET: R. toruloides DAO (Rhodotorula toruloides, UniProt P80324)
- ASSAY_OVERVIEW: activity of purified DAO on amino acid substrates and Ceph C (relative activity, apparent Km)
- Type: biochemical
- Set-up: made in house; host or cells: R. toruloides cells (native source, not recombinant)
- EXPERIMENTAL_CONDITIONS: purified R. toruloides DAO
MEASURED_PROPERTY: relative activity of the purified DAO on substrate

*Q* State, in one line, measured relative activity of the purified DAO on substrate of `C[C@H](O)[C@@H](N)C(=O)O`
*A* < 20 % of maximal

*Q* State, in one line, measured relative activity of the purified DAO on substrate of `N[C@H](CCC(=O)O)C(=O)O`
*A* < 20 % of maximal

*Q* State, in one line, measured relative activity of the purified DAO on substrate of `N[C@H](CC(=O)O)C(=O)O`
*A* < 20 % of maximal

*Q* State, in one line, measured relative activity of the purified DAO on substrate of `NCCCC[C@@H](N)C(=O)O`
*A* < 20 % of maximal
